All values here come from ChEMBL document CHEMBL4613209.

Experiment: Toxicity in mouse xenografted with human MB-9812 cells
measurement.label: LD50 (mg/kg)

molecule	measured.result
CN(Cc1cnc2nc(N)nc(N)c2n1)c1ccc(C(=O)N[C@@H](CCC(=O)O)C(=O)O)cc1 [METHOTREXATE]	5
CCC[C@H](N)C(=O)NC1CCN(C2C(F)=Cc3c4n(cc(C(=O)O)c3=O)-c3ccccc3OC42)C1 (some centres undefined)	59.6
COc1cc([C@@H]2c3cc4c(cc3[C@@H](O[C@@H]3O[C@@H]5CO[C@@H](C)O[C@H]5[C@H](O)[C@H]3O)[C@H]3COC(=O)[C@H]23)OCO4)cc(OC)c1O [ETOPOSIDE]	64
COc1cccc2c1C(=O)c1c(O)c3c(c(O)c1C2=O)C[C@@](O)(C(=O)CO)C[C@@H]3O[C@H]1C[C@H](N)[C@H](O)[C@H](C)O1 [DOXORUBICIN]	11

----------
Target: Caspase-3 (Homo sapiens, UniProt P42574)
Sequence (P42574 29-175 limits assumed): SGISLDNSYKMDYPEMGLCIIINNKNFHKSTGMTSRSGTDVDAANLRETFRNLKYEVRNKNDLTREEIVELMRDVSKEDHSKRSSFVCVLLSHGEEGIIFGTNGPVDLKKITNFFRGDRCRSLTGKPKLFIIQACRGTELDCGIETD
Sequence (P42574 176-277 limits assumed): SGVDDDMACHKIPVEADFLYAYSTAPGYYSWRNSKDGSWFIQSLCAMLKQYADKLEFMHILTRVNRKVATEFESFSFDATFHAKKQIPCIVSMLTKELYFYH
Assay: Activation of caspase 3 in human SMMC7721 cells
measurement.label: IC50

1) O=C(N/N=C/c1ccc2c(c1)OCO2)c1cn(C2CC2)c2cc(N3CCNCC3)c(F)cc2c1=O 3 to 7.39 µM

----------
# pIC50 per entry
System: HT-29
Assay: Anticancer activity against human HT-29 cells by MTT assay
Format: functional, cell-based
pIC50: −log10 of the molar value.
measurement.label: pIC50

1. CCOC(=O)c1cn(Cc2cn(-c3ccc([N+](=O)[O-])cc3)nn2)c2ccc(Cl)cc2c1=O 4.05 to 4.88
2. CCOC(=O)c1cn(Cc2cn(-c3ccc(C)cc3)nn2)c2ccc(F)cc2c1=O 4.05 to 4.88
3. CCOC(=O)c1cn(Cc2cn(-c3ccc(Cl)cc3)nn2)c2ccc(C)cc2c1=O 4.05 to 4.88
4. CCOC(=O)c1cn(Cc2cn(-c3ccc(F)cc3)nn2)c2ccc(Cl)cc2c1=O 4.18 to 4.87
5. CCOC(=O)c1cn(Cc2cn(-c3ccc(C)cc3)nn2)c2ccc(Cl)cc2c1=O 4.05 to 4.88
6. CCOC(=O)c1cn(Cc2cn(-c3ccc(Cl)cc3)nn2)c2ccc(Cl)cc2c1=O 4.05 to 4.88
7. CCOC(=O)c1cn(Cc2cn(-c3ccc(Cl)cc3)nn2)c2ccc(F)cc2c1=O 4.15 to 4.88

----------
Tested on: MGC-803
Test: Cytotoxicity against human MGC803 cells assessed as reduction in cell viability
Format: functional, cell-based
measurement.label: IC50

1) C[C@H]1COc2c(N3CCN(C)CC3)c(F)cc3c(=O)c(-c4nnc(NC(=O)CCCCCC(=O)Nc5ccccc5N)s4)cn1c23 0.046 to 0.203 µM
2) C[C@H]1COc2c(N3CCN(C)CC3)c(F)cc3c(=O)c(-c4nnc(NC(=O)CCCCCCCC(=O)NO)s4)cn1c23 0.019 to 0.127 µM
3) C[C@H]1COc2c(N3CCN(C)CC3)c(F)cc3c(=O)c(-c4nnc(NC(=O)CCCC(=O)NO)s4)cn1c23 0.019 to 0.127 µM
4) C[C@H]1COc2c(N3CCN(C)CC3)c(F)cc3c(=O)c(-c4nnc(NC(=O)CCCC(=O)O)s4)cn1c23 1.1 to 14.3 µM
5) C[C@H]1COc2c(N3CCN(C)CC3)c(F)cc3c(=O)c(-c4nnc(NC(=O)CCCCCCCCC(=O)O)s4)cn1c23 1.1 to 14.3 µM
6) C[C@H]1COc2c(N3CCN(C)CC3)c(F)cc3c(=O)c(-c4nnc(NC(=O)CCCCCC(=O)NO)s4)cn1c23 0.019 to 0.127 µM
7) C[C@H]1COc2c(N3CCN(C)CC3)c(F)cc3c(=O)c(-c4nnc(NC(=O)CCCCCC(=O)O)s4)cn1c23 1.1 to 14.3 µM
8) C[C@H]1COc2c(N3CCN(C)CC3)c(F)cc3c(=O)c(-c4nnc(NC(=O)CCCCCCCCC(=O)Nc5ccccc5N)s4)cn1c23 0.046 to 0.203 µM
9) C[C@H]1COc2c(N3CCN(C)CC3)c(F)cc3c(=O)c(-c4nnc(NC(=O)CCCCCCCCC(=O)NO)s4)cn1c23 0.019 to 0.127 µM
10) C[C@H]1COc2c(N3CCN(C)CC3)c(F)cc3c(=O)c(-c4nnc(NC(=O)CCCCCCC(=O)Nc5ccccc5N)s4)cn1c23 0.046 to 0.203 µM
11) C[C@H]1COc2c(N3CCN(C)CC3)c(F)cc3c(=O)c(-c4nnc(NC(=O)CCCCCCC(=O)O)s4)cn1c23 1.1 to 14.3 µM
12) C[C@H]1COc2c(N3CCN(C)CC3)c(F)cc3c(=O)c(-c4nnc(NC(=O)CCCCC(=O)O)s4)cn1c23 1.1 to 14.3 µM
13) C[C@H]1COc2c(N3CCN(C)CC3)c(F)cc3c(=O)c(-c4nnc(NC(=O)CCCC(=O)Nc5ccccc5N)s4)cn1c23 0.046 to 0.203 µM
14) C[C@H]1COc2c(N3CCN(C)CC3)c(F)cc3c(=O)c(-c4nnc(NC(=O)CCCCC(=O)NO)s4)cn1c23 0.019 to 0.127 µM
15) C[C@H]1COc2c(N3CCN(C)CC3)c(F)cc3c(=O)c(-c4nnc(NC(=O)CCCCC(=O)Nc5ccccc5N)s4)cn1c23 0.046 to 0.203 µM

----------
System: MGC-803
Assay: Cytotoxicity against human MGC803 cells assessed as reduction in cell viability
Assay type: functional, cell-based
IC50: recorded values
measurement.label: IC50

1) C[C@H]1COc2c(N3CCN(C)CC3)c(F)cc3c(=O)c(-c4nnc(NC(=O)CCCCCCC(=O)NO)s4)cn1c23 600 to 3100 nM
2) C[C@H]1COc2c(N3CCN(C)CC3)c(F)cc3c(=O)c(-c4nnc(NC(=O)CCCCCCCC(=O)Nc5ccccc5N)s4)cn1c23 46 to 203 nM
3) C[C@H]1COc2c(N3CCN(C)CC3)c(F)cc3c(=O)c(-c4nnc(NC(=O)CCCCCCCC(=O)O)s4)cn1c23 1100 to 14300 nM

----------
Test system: HepG2
Assay: Cytotoxicity against human HepG2 cells assessed as reduction in cell viability
Assay type: functional, cell-based
pIC50: −log10 of the molar value.
measurement.label: pIC50

1) C[C@H]1COc2c(N3CCN(C)CC3)c(F)cc3c(=O)c(-c4nnc(NC(=O)CCCCCC(=O)Nc5ccccc5N)s4)cn1c23 6.69 to 7.34
2) C[C@H]1COc2c(N3CCN(C)CC3)c(F)cc3c(=O)c(-c4nnc(NC(=O)CCCCC(=O)NO)s4)cn1c23 6.90 to 7.72
3) C[C@H]1COc2c(N3CCN(C)CC3)c(F)cc3c(=O)c(-c4nnc(NC(=O)CCCCCC(=O)O)s4)cn1c23 4.84 to 5.96
4) C[C@H]1COc2c(N3CCN(C)CC3)c(F)cc3c(=O)c(-c4nnc(NC(=O)CCCCCCCC(=O)Nc5ccccc5N)s4)cn1c23 6.69 to 7.34
5) C[C@H]1COc2c(N3CCN(C)CC3)c(F)cc3c(=O)c(-c4nnc(NC(=O)CCCCCCCCC(=O)NO)s4)cn1c23 6.90 to 7.72
6) C[C@H]1COc2c(N3CCN(C)CC3)c(F)cc3c(=O)c(-c4nnc(NC(=O)CCCCCC(=O)NO)s4)cn1c23 6.90 to 7.72
7) C[C@H]1COc2c(N3CCN(C)CC3)c(F)cc3c(=O)c(-c4nnc(NC(=O)CCCCCCC(=O)Nc5ccccc5N)s4)cn1c23 6.69 to 7.34
8) C[C@H]1COc2c(N3CCN(C)CC3)c(F)cc3c(=O)c(-c4nnc(NC(=O)CCCCCCCC(=O)O)s4)cn1c23 4.84 to 5.96
9) C[C@H]1COc2c(N3CCN(C)CC3)c(F)cc3c(=O)c(-c4nnc(NC(=O)CCCCCCCCC(=O)Nc5ccccc5N)s4)cn1c23 6.69 to 7.34
10) C[C@H]1COc2c(N3CCN(C)CC3)c(F)cc3c(=O)c(-c4nnc(NC(=O)CCCCCCC(=O)NO)s4)cn1c23 5.51 to 6.22

----------
System: HL-60
Assay: Antiproliferative activity against human HL60 cells after 72 hrs by MTT assay
Assay type: functional, cell-based
Details: HL-60, 72 h
pIC50: −log10 of the molar value.
measurement.label: pIC50

compound	tested.system	measurement.label	measured.result
N=C(NS(=O)(=O)c1ccccc1)N1CCN(c2cc3c(cc2F)c(=O)c(C(=O)O)cn3C2CC2)CC1	HL-60	pIC50	6.79 to 7.49
N=C(NS(=O)(=O)c1ccc(C(F)(F)F)cc1)N1CCN(c2cc3c(cc2F)c(=O)c(C(=O)O)cn3C2CC2)CC1	HL-60	pIC50	6.79 to 7.49
CCn1cc(C(=O)O)c(=O)c2cc(F)c(N3CCN(C(=N)NS(=O)(=O)c4ccc(C(F)(F)F)cc4)CC3)cc21	HL-60	pIC50	6.79 to 7.49
CCn1cc(C(=O)O)c(=O)c2cc(F)c(N3CCNCC3)cc21 [NORFLOXACIN]	HL-60	pIC50	< 6.52
N=C(NS(=O)(=O)c1cccc(Cl)c1)N1CCN(c2cc3c(cc2F)c(=O)c(C(=O)O)cn3C2CC2)CC1	HL-60	pIC50	6.79 to 7.49
CCn1cc(C(=O)O)c(=O)c2cc(F)c(N3CCN(C(=N)NS(=O)(=O)c4ccc(C)cc4)CC3)cc21	HL-60	pIC50	6.79 to 7.49
O=C(O)c1cn(C2CC2)c2cc(N3CCNCC3)c(F)cc2c1=O [CIPROFLOXACIN]	HL-60	pIC50	< 6.52
CCn1cc(C(=O)O)c(=O)c2cc(F)c(N3CCN(C(=N)NS(=O)(=O)c4ccccc4C(F)(F)F)CC3)cc21	HL-60	pIC50	6.79 to 7.49
CCn1cc(C(=O)O)c(=O)c2cc(F)c(N3CCN(C(=N)NS(=O)(=O)c4ccccc4Cl)CC3)cc21	HL-60	pIC50	7.10 to 7.49
CCn1cc(C(=O)O)c(=O)c2cc(F)c(N3CCN(C(=N)NS(=O)(=O)c4cccc(Cl)c4)CC3)cc21	HL-60	pIC50	6.79 to 7.49
CCn1cc(C(=O)O)c(=O)c2cc(F)c(N3CCN(C(=N)NS(=O)(=O)c4ccc(Cl)cc4)CC3)cc21	HL-60	pIC50	6.79 to 7.49
